Source: patent US20110183999A1

Assay: Thermogravimetry (TGA) mass loss
Format: physicochemical
Details: heating rate 10 Kmin^−1, open platinum crucibles, nitrogen purge
Experimental: The TGA measurements were carried out using TGA7 and Pyris-1-TGA thermobalances from Perkin-Elmer using a heating rate of 10 Kmin^−1. The measurements were carried out in open platinum crucibles, the purge gas used was nitrogen. There was no sample preparation.
measure.name: Mass loss

Sample answers from the record:
| compound | Mass loss |
| --- | --- |
| COC(=O)Nc1c(N)nc(-c2nn(Cc3ccccc3F)c3ncccc23)nc1N [modification III] | <0.5 % by weight |
| COC(=O)Nc1c(N)nc(-c2nn(Cc3ccccc3F)c3ncccc23)nc1N [modification IV] | <1 % by weight |
| COC(=O)Nc1c(N)nc(-c2nn(Cc3ccccc3F)c3ncccc23)nc1N [modification II] | <0.5 % by weight |

Name the reported Mass loss value associated with the compound COC(=O)Nc1c(N)nc(-c2nn(Cc3ccccc3F)c3ncccc23)nc1N [modification I]
<0.5 % by weight
